Numbers sourced from ChEMBL document CHEMBL3758163.

# study_target: Tyrosine-protein kinase ABL1 (Homo sapiens)
# assay_procedure: Inhibition of ABL1 (unknown origin) at 500 nM
reported_endpoint: inhibition (%)
Provide only the numeric value, understood in %.

Look up inhibition for this compound: COc1cc(CO)ccc1-c1cc2c(N[C@H](CO)c3ccccc3)ncnc2s1 22

Look up inhibition: C#Cc1cccc(Nc2ncnc3cc(OCCOC)c(OCCOC)cc23)c1 [ERLOTINIB] 75

// query inhibition value for entry COc1ccc(C(=O)NCCN(C)C)cc1-c1cc2c(N[C@H](C)c3ccccc3)ncnc2s1 6

I have this compound here, COc1cc(CO)ccc1-c1cc2c(N[C@H](C)c3ccccc3)ncnc2s1 , and I need its recorded inhibition. 7

Quick check: inhibition of COc1cc(CO)ccc1-c1cc2c(Nc3ccccc3)ncnc2s1 ? 20

What does the data say about its inhibition? Entry: C#Cc1cccc(Nc2ncnc3sc(-c4ccc(CO)cc4OC)cc23)c1 -3

----------
# study_target: Tyrosine-protein kinase Fer (Homo sapiens) (UniProt P16591)
# Sequence (P16591 whole entry, looked up): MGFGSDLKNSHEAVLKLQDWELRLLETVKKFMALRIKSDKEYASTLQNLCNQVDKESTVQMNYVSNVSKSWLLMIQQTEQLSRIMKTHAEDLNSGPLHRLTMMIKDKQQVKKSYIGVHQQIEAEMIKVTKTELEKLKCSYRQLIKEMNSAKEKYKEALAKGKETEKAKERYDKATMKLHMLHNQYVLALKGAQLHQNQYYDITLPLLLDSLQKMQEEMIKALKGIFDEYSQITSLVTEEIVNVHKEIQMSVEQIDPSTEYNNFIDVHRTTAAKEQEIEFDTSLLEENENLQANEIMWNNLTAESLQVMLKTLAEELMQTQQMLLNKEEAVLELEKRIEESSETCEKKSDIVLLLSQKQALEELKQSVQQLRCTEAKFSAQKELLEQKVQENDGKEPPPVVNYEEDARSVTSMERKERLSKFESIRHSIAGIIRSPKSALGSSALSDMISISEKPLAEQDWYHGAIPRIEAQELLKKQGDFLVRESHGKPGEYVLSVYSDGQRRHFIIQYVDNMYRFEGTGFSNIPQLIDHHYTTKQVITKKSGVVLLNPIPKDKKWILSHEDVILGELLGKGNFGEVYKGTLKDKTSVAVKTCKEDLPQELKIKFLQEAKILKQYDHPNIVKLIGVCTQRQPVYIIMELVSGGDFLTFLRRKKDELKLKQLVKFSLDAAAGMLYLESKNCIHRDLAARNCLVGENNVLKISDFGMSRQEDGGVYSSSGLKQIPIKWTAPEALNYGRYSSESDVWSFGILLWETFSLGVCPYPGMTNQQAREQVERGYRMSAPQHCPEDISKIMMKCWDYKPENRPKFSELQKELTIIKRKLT
# assay_procedure: Inhibition of FER (unknown origin) at 500 nM
Please respond with reported inhibition for every item in the list.
I only need the number, in %, no unit after it.

# input compound: C#Cc1cccc(Nc2ncnc3sc(-c4ccc(CO)cc4OC)cc23)c1 ; wanted: its inhibition -2

# input compound: COc1cc(CO)ccc1-c1cc2c(N[C@H](CO)c3ccccc3)ncnc2s1 ; wanted: its inhibition 8

Recorded inhibition for C[C@@H](Nc1ncnc2sc(-c3ccccc3C(N)=O)cc12)c1ccccc1 , please? -4

Entry COc1cc(CO)ccc1-c1cc2c(N[C@H](C)c3ccccc3)ncnc2s1 : reported inhibition = ? 10

Consider the compound shown here: COc1cc(CO)ccc1-c1cc2c(Nc3ccccc3)ncnc2s1 What is its recorded inhibition? 0

Reported inhibition for COc1cc(C(N)=O)ccc1-c1cc2c(N[C@H](CO)c3ccccc3)ncnc2s1 : what is it? -3

----------
Provide the recorded inhibition for the entries that follow.
# study_target: Aurora kinase A (Homo sapiens)
# assay_procedure: Inhibition of AURKA (unknown origin) at 500 nM
Reply numerically in %, unit not repeated.

# get_value(readout='inhibition', item= COc1cc(CO)ccc1-c1cc2c(Nc3ccc(F)c(Cl)c3)ncnc2s1 ) -6

What measured inhibition goes with COc1cc(CO)ccc1-c1cc2c(N[C@H](CO)c3ccccc3)ncnc2s1 ? 5

Any idea what its inhibition is? The compound is C[C@@H](Nc1ncnc2sc(-c3ccccc3C(N)=O)cc12)c1ccccc1 6

Need inhibition, item COc1cc(CO)ccc1-c1cc2c(N[C@H](C)c3ccccc3)ncnc2s1 1

# inhibition lookup, item C[C@@H](Nc1ncnc2sc(-c3ccc(C(=O)NCCN(C)C)cc3)cc12)c1ccccc1 3

Name the recorded inhibition for COc1cc(C(N)=O)ccc1-c1cc2c(N[C@H](CO)c3ccccc3)ncnc2s1 . 6

Given the compound CN(C)CCNC(=O)c1ccc(-c2cc3c(N[C@H](CO)c4ccccc4)ncnc3s2)cc1 , what is its reported inhibition? 6

# input compound: C#Cc1cccc(Nc2ncnc3sc(-c4ccc(CO)cc4OC)cc23)c1 ; wanted: its inhibition 14

# query: inhibition of entry COc1ccc(C(=O)NCCN(C)C)cc1-c1cc2c(N[C@H](C)c3ccccc3)ncnc2s1 -4

What does the record list as inhibition for COc1cc(CO)ccc1-c1cc2c(Nc3ccccc3)ncnc2s1 ? -3

----------
# assay_procedure: Half-life in human liver microsomes at 3 uM by LC-MS/MS analysis
# Assay type: ADME
# note: boundary value 2 h maps to f; half-life at 3 µM below it maps to t

Regarding C#Cc1cccc(Nc2ncnc3cc(OCCOC)c(OCCOC)cc23)c1 [ERLOTINIB] , kindly confirm whether its half-life at 3 µM is beneath 2 h. t

hey, is half-life at 3 µM for COc1cccc(OC)c1-c1cc2c(N[C@H](CO)c3ccccc3)ncnc2s1 lower than 2 h or not? t

Regarding COc1cc(C(=O)NCCN(C)C)ccc1-c1cc2c(N[C@H](C)c3ccccc3)ncnc2s1 , kindly confirm whether its half-life at 3 µM is beneath 2 h. f

State whether 2 h exceeds half-life at 3 µM recorded for C[C@@H](Nc1ncnc2sc(-c3cccc(C(=O)NCCN(C)C)c3)cc12)c1ccccc1 . t

Field: below-cutoff. Rule: recorded half-life at 3 µM strictly less than 2 h. Subject: COc1cc(C(=O)NCCN(C)C)cc(OC)c1-c1cc2c(N[C@H](C)c3ccccc3)ncnc2s1 f

Lab note: half-life at 3 µM threshold 2 h. Does this compound come in strictly under it? COc1cc(CO)ccc1-c1cc2c(N[C@H](CO)c3ccccc3)ncnc2s1 f

Here's an entry: COc1ccc(C(=O)NCCN(C)C)cc1-c1cc2c(N[C@H](C)c3ccccc3)ncnc2s1 . Is its half-life at 3 µM below 2 h? t

# check: half-life at 3 µM < 2 h for COc1cc(C(N)=O)ccc1-c1cc2c(N[C@H](CO)c3ccccc3)ncnc2s1 f

Would you kindly verify if half-life at 3 µM of CN(C)CCNC(=O)c1ccc(-c2cc3c(N[C@H](CO)c4ccccc4)ncnc3s2)cc1 is strictly less than 2 h? t

A record lists COc1cc(CO)ccc1-c1cc2c(Nc3ccc(F)c(Cl)c3)ncnc2s1 . Is its half-life at 3 µM below 2 h? f

----------
# study_target: cAMP-dependent protein kinase catalytic subunit alpha (Homo sapiens)
# assay_procedure: Inhibition of PRKACA (unknown origin) at 500 nM
reported_endpoint: inhibition (%)
Give your result in % as a bare value.

// lookup inhibition for C#Cc1cccc(Nc2ncnc3cc(OCCOC)c(OCCOC)cc23)c1 -10

What value of inhibition has been reported for the following compound? COc1cc(CO)ccc1-c1cc2c(Nc3ccc(F)c(Cl)c3)ncnc2s1 8

// query inhibition value for entry C[C@@H](Nc1ncnc2sc(-c3ccccc3C(N)=O)cc12)c1ccccc1 -8

What inhibition value was documented for this compound, C[C@@H](Nc1ncnc2sc(-c3ccc(C(=O)NCCN(C)C)cc3)cc12)c1ccccc1 ? -6

Report inhibition for COc1ccc(C(=O)NCCN(C)C)cc1-c1cc2c(N[C@H](C)c3ccccc3)ncnc2s1 please. 9

Which inhibition reading was recorded for the compound COc1cc(C(N)=O)ccc1-c1cc2c(N[C@H](CO)c3ccccc3)ncnc2s1 ? -5

----------
I'd appreciate it if you could supply inhibition values for the items below.
# study_target: Dual specificity mitogen-activated protein kinase kinase 1 (Homo sapiens) (UniProt Q02750)
# Sequence (Q02750 whole entry): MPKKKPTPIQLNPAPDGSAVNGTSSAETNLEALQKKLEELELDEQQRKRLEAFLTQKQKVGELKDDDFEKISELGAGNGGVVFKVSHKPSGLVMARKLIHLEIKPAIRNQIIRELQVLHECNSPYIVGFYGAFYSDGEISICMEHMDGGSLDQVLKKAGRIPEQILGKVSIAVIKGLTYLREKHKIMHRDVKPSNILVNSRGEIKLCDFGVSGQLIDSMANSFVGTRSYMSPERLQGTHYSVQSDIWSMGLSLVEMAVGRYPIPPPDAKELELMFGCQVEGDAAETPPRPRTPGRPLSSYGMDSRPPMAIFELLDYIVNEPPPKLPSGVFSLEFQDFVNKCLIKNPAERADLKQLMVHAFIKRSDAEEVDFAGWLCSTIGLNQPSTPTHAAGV
# assay_procedure: Inhibition of MAP2K1 (unknown origin) at 500 nM
// note: answer is a bare numeric in %

Find the recorded inhibition belonging to COc1cc(CO)ccc1-c1cc2c(N[C@H](C)c3ccccc3)ncnc2s1 and report it. 4

Recorded inhibition for CN(C)CCNC(=O)c1ccc(-c2cc3c(N[C@H](CO)c4ccccc4)ncnc3s2)cc1 , please? 12

Look at this compound and give its reported inhibition. COc1ccc(C(=O)NCCN(C)C)cc1-c1cc2c(N[C@H](C)c3ccccc3)ncnc2s1 3

Query: inhibition; subject: COc1cc(CO)ccc1-c1cc2c(Nc3ccc(F)c(Cl)c3)ncnc2s1 12

Recorded inhibition of COc1cc(CO)ccc1-c1cc2c(N[C@H](CO)c3ccccc3)ncnc2s1 , please. 18

Request the reported inhibition associated with C[C@@H](Nc1ncnc2sc(-c3ccc(C(=O)NCCN(C)C)cc3)cc12)c1ccccc1 6

May I ask what inhibition has been recorded for C[C@@H](Nc1ncnc2sc(-c3ccccc3C(N)=O)cc12)c1ccccc1 ? 3

Name the recorded inhibition for C#Cc1cccc(Nc2ncnc3sc(-c4ccc(CO)cc4OC)cc23)c1 . 3

I have this compound here, COc1cc(CO)ccc1-c1cc2c(Nc3ccccc3)ncnc2s1 , and I need its recorded inhibition. 15

So what does the record say about inhibition for COc1cc(C(N)=O)ccc1-c1cc2c(N[C@H](CO)c3ccccc3)ncnc2s1 ? 10

----------
# assay_procedure: Antiproliferative activity against human Calu3 cells after 72 hrs by CellTiter blue assay
# Format: functional, cell-based
# settings: Calu-3, 72 h
reported_endpoint: IC50 (µM)
Unit µM implied. Number only.

Which IC50 value belongs to COc1cc(CO)ccc1-c1cc2c(N[C@H](CO)c3ccccc3)ncnc2s1 ? 4.2

# IC50 lookup, item C#Cc1cccc(Nc2ncnc3cc(OCCOC)c(OCCOC)cc23)c1 [ERLOTINIB] 4.7

----------
# study_target: Serine/threonine-protein kinase B-raf (Homo sapiens)
# assay_procedure: Inhibition of BRAF (unknown origin) at 500 nM
reported_endpoint: inhibition (%)
Output spec: scalar in %, unitless text.

State the recorded inhibition for this entry: COc1cc(C(N)=O)ccc1-c1cc2c(N[C@H](CO)c3ccccc3)ncnc2s1 25

Item under review: COc1cc(CO)ccc1-c1cc2c(Nc3ccc(F)c(Cl)c3)ncnc2s1 . Reported inhibition? 3

Requested read-out: inhibition. Entry: CN(C)CCNC(=O)c1ccc(-c2cc3c(N[C@H](CO)c4ccccc4)ncnc3s2)cc1 7

Return reported inhibition; argument: COc1ccc(C(=O)NCCN(C)C)cc1-c1cc2c(N[C@H](C)c3ccccc3)ncnc2s1 7

Any idea what inhibition was measured for C[C@@H](Nc1ncnc2sc(-c3ccccc3C(N)=O)cc12)c1ccccc1 ? 21

Fill in: inhibition of COc1cc(CO)ccc1-c1cc2c(N[C@H](CO)c3ccccc3)ncnc2s1 is ___ 20

Need inhibition, item C#Cc1cccc(Nc2ncnc3sc(-c4ccc(CO)cc4OC)cc23)c1 16

If you can, please state the reported inhibition value of C[C@@H](Nc1ncnc2sc(-c3ccc(C(=O)NCCN(C)C)cc3)cc12)c1ccccc1 . 23

Param item = COc1cc(CO)ccc1-c1cc2c(Nc3ccccc3)ncnc2s1 ; retrieve measured inhibition. 11

So what does the record say about inhibition for COc1cc(CO)ccc1-c1cc2c(N[C@H](C)c3ccccc3)ncnc2s1 ? 1
